Test system: Rattus norvegicus
Assay: Volume of distribution at steady state in Sprague-Dawley rat at 5 mg/kg, po
Assay type: ADME, organism-based
Parameters: dose 5 mg/kg, route oral
Conditions: in vivo
parameter: Vdss

| compound | parameter | measured |
| --- | --- | --- |
| CN(C)C(=O)c1cccc(-c2cc(N3CC(N)C(c4cc(F)c(F)cc4F)C3)ncn2)c1 (stereo not given) | Vdss | 1.77 L/kg |
| NC1CN(c2cc(-c3cccc(C(=O)O)c3)ncn2)CC1c1cc(F)c(F)cc1F (stereo not given) | Vdss | 1.78 L/kg |
| CS(=O)(=O)c1cccc(-c2cc(N3CC(N)C(c4cc(F)c(F)cc4F)C3)ncn2)c1 (stereo not given) | Vdss | 1.44 L/kg |
| NC1CN(c2cc(-c3cccc(S(=O)(=O)N4CCOCC4)c3)ncn2)CC1c1cc(F)c(F)cc1F (stereo not given) | Vdss | 1.84 L/kg |
| CS(=O)(=O)c1cccc(-c2ncnc(N3CC(N)C(c4cc(F)c(F)cc4F)C3)n2)c1 (stereo not given) | Vdss | 1.15 L/kg |

---

Target: Cytochrome P450 2C9 (Homo sapiens, UniProt P11712)
Sequence (P11712 whole entry): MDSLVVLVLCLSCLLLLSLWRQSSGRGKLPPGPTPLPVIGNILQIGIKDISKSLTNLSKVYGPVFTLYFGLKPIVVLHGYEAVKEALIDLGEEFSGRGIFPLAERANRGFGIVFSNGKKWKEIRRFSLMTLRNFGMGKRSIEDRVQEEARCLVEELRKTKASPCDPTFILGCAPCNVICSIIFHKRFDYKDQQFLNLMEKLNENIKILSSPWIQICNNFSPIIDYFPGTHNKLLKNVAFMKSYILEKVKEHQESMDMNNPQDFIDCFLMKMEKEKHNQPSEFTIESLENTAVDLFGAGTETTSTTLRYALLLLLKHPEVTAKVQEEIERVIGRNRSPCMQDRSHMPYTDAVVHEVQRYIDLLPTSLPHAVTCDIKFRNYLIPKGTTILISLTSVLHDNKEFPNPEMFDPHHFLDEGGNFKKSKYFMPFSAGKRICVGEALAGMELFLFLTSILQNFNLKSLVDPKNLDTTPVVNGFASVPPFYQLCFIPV
pIC50: −log10 of the molar value.
parameter: pIC50

| compound | parameter | measured |
| --- | --- | --- |
| NC1CN(c2cc(-c3cccc(S(=O)(=O)N4CCOCC4)c3)ncn2)CC1c1cc(F)c(F)cc1F (stereo not drawn) | pIC50 | < 5.00 |
| CS(=O)(=O)c1cccc(-c2ncnc(N3CC(N)C(c4cc(F)c(F)cc4F)C3)n2)c1 (stereo not drawn) | pIC50 | < 5.00 |
| NC1CN(c2cc(-c3ccsc3)ncn2)CC1c1cc(F)c(F)cc1F (racemic) | pIC50 | < 5.00 |
